EC50 reference
Target: Short transient receptor potential channel 4 (Mus musculus, UniProt Q9QUQ5)
Sequence (Q9QUQ5 whole entry): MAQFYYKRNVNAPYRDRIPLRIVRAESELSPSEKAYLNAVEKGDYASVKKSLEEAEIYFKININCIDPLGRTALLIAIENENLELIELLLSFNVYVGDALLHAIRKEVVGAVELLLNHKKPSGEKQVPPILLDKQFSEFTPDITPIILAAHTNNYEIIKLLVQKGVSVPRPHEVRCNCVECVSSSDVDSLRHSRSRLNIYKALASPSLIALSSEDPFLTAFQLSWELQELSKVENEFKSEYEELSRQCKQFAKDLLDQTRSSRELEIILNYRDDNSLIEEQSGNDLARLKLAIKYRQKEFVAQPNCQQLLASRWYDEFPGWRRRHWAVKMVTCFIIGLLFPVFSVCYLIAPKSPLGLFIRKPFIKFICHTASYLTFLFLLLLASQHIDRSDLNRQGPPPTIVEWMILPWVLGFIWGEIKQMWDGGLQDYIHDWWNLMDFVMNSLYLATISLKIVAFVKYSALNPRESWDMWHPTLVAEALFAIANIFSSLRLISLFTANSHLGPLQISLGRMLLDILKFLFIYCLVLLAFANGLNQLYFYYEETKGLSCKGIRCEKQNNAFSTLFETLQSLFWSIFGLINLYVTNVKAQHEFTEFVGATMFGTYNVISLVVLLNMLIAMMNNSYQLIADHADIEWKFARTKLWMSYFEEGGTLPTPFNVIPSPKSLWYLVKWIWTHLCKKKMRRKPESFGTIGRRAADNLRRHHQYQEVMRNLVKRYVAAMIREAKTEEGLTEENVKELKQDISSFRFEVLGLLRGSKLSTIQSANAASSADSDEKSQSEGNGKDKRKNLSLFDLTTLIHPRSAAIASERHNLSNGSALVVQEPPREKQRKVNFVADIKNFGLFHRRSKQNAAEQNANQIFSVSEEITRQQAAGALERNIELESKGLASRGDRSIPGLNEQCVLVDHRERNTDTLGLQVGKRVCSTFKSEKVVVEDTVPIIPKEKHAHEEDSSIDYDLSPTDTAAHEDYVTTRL
Experiment: calcium entry via TRPC4 opening agents – cell-based, HEK293 TRPC4/mu-opioid, Fluo-4 calcium, dose response (AID 434937)
Format: functional
Activity calls are given as the source filed them.

Before answering, review these 5 worked examples.
// fetch EC50 given entry COc1ccc(C(CNCC(O)COc2c(C)ccc(C)c2C)N(C)C)cc1 (stereo not given)
1.19 µM (active)

// fetch EC50 given entry `c1ccc2sc(N3CCNCC3)nc2c1`
0.473 µM (active)

// fetch EC50 given entry COc1ccc(C(CNC(=O)c2ccc3c(c2)OCCO3)N(C)C)cc1 (stereo not given)
0.237 µM (active)

// fetch EC50 given entry `CC1(C(=O)NC(=S)NNC(=O)c2ccncc2)CCCCC1`
11.9 µM (active)

// fetch EC50 given entry `CCN1CCN(c2ccc(S(=O)(=O)N3CCCCC3)cc2NC(=O)c2cccc(Cl)c2)CC1`
3.76 µM (active)

More entries:
// fetch EC50 given entry O=C(NCc1cccnc1)C1CCCN(Cc2cnn(-c3ccccc3)c2-n2cccc2)C1 (stereo not given)
1.68 µM (active)

// fetch EC50 given entry Cc1cccc(OCCC(=O)NCC(c2ccccc2)N(C)C)c1 (stereo not given)
0.473 µM (active)

----------
AC50 reference
Molecular target: DNA repair and recombination protein RAD54-like (Homo sapiens, UniProt Q92698)
Sequence (Q92698 whole entry): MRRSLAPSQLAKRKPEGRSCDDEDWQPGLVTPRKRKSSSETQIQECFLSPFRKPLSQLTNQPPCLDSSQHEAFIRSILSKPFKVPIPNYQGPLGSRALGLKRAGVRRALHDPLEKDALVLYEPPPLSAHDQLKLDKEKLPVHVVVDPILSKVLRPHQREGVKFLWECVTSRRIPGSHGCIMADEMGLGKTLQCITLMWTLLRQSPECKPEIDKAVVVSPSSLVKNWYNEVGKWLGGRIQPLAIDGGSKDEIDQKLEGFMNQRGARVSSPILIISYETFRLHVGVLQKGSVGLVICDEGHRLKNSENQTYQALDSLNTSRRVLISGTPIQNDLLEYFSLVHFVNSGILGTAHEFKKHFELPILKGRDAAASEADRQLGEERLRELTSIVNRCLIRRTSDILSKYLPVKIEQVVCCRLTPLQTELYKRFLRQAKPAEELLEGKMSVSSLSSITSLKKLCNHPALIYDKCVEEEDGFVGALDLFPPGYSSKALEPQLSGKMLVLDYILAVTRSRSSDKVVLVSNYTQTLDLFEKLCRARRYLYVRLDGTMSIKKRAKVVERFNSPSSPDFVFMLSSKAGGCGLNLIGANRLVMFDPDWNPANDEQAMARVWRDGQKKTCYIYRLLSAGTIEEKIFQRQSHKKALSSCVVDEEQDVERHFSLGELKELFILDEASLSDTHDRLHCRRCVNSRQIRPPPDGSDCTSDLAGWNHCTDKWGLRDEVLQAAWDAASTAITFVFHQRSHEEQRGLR
Test: RAD54 Holliday junction migration blockers – biochemical, fluorescence, cherry-picked samples, dose series, confirmation (AID 651657)
Assay type: functional
The source made the active and inactive calls.

// fetch AC50 given entry `COc1ccc(C(=O)CN2CCN(CCN3C(=O)c4cccc5cccc(c45)C3=O)CC2)cc1`
8.03 µM (active)

// fetch AC50 given entry `Cc1cc(Nc2ccc3c(c2)OCCO3)c2cccc(C)c2n1`
13.9 µM (active)

// fetch AC50 given entry `CCOC(=O)c1cc(-c2ccncc2)nc2c1c(C)nn2-c1ccccn1`
30.4 µM (active)

// fetch AC50 given entry `CCN(CC)CCN=C(S)Nc1ccc2nc(N3CCN(CC)CC3)cc(C)c2c1`
15.3 µM (active)

// fetch AC50 given entry `CCN1CCc2c(sc(NC(=O)c3ccc(S(=O)(=O)N4CCOCC4)cc3)c2C(=O)OC)C1.Cl`
12.8 µM (active)

More entries:
// fetch AC50 given entry COc1ccc(Nc2nc(NCC3CCCO3)c3ccccc3n2)c(OC)c1 (configuration not stated)
57.9 µM (active)

// fetch AC50 given entry `Cc1nc2ccccc2c2oc(C(=O)NCCN3CCN(C)CC3)cc12`
39.9 µM (active)

----------
Target: Zinc finger protein mex-5 (Caenorhabditis elegans)
Sequence (Q9XUB2 whole entry): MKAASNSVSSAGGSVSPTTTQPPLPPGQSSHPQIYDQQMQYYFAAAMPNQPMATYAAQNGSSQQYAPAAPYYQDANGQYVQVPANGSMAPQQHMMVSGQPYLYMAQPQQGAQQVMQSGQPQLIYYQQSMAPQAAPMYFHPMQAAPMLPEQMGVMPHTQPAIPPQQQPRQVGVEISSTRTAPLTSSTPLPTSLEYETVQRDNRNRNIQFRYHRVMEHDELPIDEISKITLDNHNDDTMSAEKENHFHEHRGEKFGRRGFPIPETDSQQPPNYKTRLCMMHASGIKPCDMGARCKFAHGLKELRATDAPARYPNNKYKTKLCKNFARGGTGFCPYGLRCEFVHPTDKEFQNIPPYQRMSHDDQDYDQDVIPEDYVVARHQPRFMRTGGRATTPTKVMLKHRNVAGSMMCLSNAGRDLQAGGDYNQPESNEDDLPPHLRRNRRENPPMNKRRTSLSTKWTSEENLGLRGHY
Assay: potency of MEX-5 RNA-binding blockers – biochemical, C. elegans, fluorescence polarization, dose response (AID 1960)
Active and inactive are the calls of the source.
PARAMETER_MEASURED: EC50

Before answering, review these 5 worked examples.
// fetch EC50 given entry CC1CCCN(c2nc3ccccc3nc2C(C#N)S(=O)(=O)c2cccs2)C1 (stereo unspecified)
11.2 µM (inconclusive)

// fetch EC50 given entry O=C(c1ccccc1)[C@@H]1[C@@H]2C(=O)N(c3ccc(F)cc3)C(=O)[C@@H]2C2CCCN21 (stereo partly specified)
40.9 µM (active)

// fetch EC50 given entry `COc1ccc(NC(=O)Nc2ccc(OCc3ccccc3)cc2)cn1`
17.9 µM (active)

// fetch EC50 given entry COc1ccc(OC)c(C2Nc3c(Cl)ccc(C(=O)O)c3C3C=CCC32)c1 (stereo unspecified)
40.7 µM (active)

// fetch EC50 given entry `Cc1ccc(/C=N/Nc2[nH]cnc3ncnc2-3)cc1`
> 300 µM (inconclusive)

More entries:
// fetch EC50 given entry `CC(C)SC1=NSC2=NC(=O)/C(=C\c3c[nH]c4ccccc34)C(=N)N21`
> 300 µM (not active)

----------
Molecular target: Heat shock factor protein 1 (Mus musculus)
Sequence (P38532 whole entry): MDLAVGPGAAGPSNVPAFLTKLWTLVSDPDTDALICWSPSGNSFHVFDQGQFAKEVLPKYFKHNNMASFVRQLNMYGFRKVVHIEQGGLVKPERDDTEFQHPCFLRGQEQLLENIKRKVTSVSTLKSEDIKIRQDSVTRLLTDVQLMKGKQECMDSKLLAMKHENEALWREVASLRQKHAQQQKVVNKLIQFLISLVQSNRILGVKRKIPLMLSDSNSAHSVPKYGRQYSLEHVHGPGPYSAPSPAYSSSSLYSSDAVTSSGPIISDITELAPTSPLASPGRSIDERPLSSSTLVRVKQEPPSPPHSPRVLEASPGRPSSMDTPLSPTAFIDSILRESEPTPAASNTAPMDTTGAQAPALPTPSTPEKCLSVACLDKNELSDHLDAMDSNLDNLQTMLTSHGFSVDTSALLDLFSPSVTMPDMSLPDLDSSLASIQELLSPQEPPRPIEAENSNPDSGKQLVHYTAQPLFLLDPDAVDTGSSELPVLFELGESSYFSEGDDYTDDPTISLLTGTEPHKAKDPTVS
Experiment: decrease of HSF1-responsive luciferase luminescence – cell-based, NIH3T3, dose retest, confirmation (AID 2382);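 note: NIH3T3 fibroblasts with HSF1-driven luciferase reporter stressed by proteasome inhibitor MG132; luminescence from HSF1-driven luciferase expression after 8 hours of MG132 stress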
Format: functional
The source made the active and inactive calls.
EC50 reference

Before answering, review these 6 worked examples.
// fetch EC50 given entry `COc1ccc(-c2nc(CNS(=O)(=O)c3ccc(OC)c(OC)c3)cs2)cc1`
> 195 µM (not active)

// fetch EC50 given entry `O=C(N/N=C/c1cccnc1)c1ccc2c(c1)OCCO2`
> 195 µM (not active)

// fetch EC50 given entry Cc1ccc(NC(=O)NCC(c2cccnc2)N2CCOCC2)cc1 (stereo not drawn)
> 195 µM (not active)

// fetch EC50 given entry `Cn1c(SCC(=O)NCc2ccccc2)nc2ccccc21`
> 195 µM (not active)

// fetch EC50 given entry `O=C(OCC(=O)N1CCN(C(=O)c2ccco2)CC1)c1sc2cc(F)ccc2c1Cl`
> 195 µM (not active)

// fetch EC50 given entry `Nc1nc(O)c(Br)c(Oc2ccc(F)cc2)n1`
35.4 µM (active)

More entries:
// fetch EC50 given entry O=C(c1ccc(F)cc1)N1CCCC(N2CCN(Cc3ccc4c(c3)OCO4)CC2)C1 (stereo not drawn)
> 195 µM (not active)

// fetch EC50 given entry `CCS(=O)(=O)c1ncc(Cl)c(C(=O)Nc2ccc(S(=O)(=O)N3CCC(C)CC3)cc2)n1`
4.04 µM (active)

// fetch EC50 given entry `CCOC(=O)c1ccc(NC(=O)NS(=O)(=O)c2ccc(C)cc2)cc1`
> 195 µM (not active)

----------
Molecular target: Peroxisome proliferator-activated receptor gamma/Nuclear receptor coactivator 1 (Homo sapiens, UniProt P37231);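 note: agonist potency as compounds enhance coactivator SRC-1 recruitment to PPARgamma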
Sequence (P37231 whole entry): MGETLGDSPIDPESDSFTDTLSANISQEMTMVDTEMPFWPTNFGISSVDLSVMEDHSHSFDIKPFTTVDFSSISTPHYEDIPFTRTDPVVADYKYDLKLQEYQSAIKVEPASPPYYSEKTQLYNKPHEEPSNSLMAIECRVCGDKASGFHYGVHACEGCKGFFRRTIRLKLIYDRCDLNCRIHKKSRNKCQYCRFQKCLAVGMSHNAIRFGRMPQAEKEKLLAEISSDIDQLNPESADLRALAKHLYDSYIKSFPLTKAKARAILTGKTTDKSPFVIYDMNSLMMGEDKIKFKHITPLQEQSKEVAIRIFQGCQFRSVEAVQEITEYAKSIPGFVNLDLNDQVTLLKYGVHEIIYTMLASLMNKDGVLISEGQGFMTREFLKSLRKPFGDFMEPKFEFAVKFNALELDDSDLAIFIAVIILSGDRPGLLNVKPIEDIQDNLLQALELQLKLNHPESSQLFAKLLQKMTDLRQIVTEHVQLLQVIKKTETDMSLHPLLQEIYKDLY
Sequence (Q15788 whole entry, further chain): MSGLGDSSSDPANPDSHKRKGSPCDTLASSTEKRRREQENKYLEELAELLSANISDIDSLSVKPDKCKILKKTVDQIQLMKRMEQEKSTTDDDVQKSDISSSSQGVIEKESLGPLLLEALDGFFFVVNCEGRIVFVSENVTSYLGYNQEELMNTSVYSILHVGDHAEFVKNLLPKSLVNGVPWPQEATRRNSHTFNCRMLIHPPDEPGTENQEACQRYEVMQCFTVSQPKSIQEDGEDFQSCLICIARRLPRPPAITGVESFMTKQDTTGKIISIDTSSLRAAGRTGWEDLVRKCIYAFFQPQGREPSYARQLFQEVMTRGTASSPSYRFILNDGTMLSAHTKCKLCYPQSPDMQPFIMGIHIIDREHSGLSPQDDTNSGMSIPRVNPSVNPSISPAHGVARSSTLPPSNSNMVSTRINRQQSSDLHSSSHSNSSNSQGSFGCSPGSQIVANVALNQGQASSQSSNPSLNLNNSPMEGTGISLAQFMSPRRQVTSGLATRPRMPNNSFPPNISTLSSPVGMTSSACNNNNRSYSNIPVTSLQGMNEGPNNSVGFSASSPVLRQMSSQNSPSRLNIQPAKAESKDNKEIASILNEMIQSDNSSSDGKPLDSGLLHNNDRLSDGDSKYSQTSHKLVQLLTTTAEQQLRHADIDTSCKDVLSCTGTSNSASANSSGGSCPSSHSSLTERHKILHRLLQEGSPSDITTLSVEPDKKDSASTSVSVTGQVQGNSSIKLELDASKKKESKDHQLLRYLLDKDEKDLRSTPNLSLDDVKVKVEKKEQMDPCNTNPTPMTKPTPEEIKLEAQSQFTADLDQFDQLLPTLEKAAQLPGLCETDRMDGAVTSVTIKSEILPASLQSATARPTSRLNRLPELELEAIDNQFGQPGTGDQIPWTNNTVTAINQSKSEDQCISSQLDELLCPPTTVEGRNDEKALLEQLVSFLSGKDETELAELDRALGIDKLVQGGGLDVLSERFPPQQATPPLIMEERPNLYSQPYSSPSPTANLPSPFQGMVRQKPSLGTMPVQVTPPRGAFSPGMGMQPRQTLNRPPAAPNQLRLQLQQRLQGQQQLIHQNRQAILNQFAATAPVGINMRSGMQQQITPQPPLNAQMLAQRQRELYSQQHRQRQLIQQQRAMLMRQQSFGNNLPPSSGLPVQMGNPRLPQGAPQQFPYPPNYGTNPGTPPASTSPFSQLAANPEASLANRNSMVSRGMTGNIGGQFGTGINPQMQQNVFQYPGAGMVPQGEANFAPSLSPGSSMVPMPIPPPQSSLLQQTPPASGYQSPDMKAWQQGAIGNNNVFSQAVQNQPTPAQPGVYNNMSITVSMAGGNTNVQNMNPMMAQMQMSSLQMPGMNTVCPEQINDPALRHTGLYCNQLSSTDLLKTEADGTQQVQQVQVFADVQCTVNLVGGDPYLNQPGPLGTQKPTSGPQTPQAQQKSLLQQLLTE
Assay type: functional
PARAMETER_MEASURED: EC50

Before answering, review these 4 worked examples.
// fetch EC50 given entry `Cc1cccc2cc(CN(Cc3ccc4c(c3)OCO4)Cc3nnnn3C3CCCC3)c(=O)[nH]c12`
> 79.4 µM (not active)

// fetch EC50 given entry `COc1ccc(C(=O)Nc2cc(C)c3c(=O)oc4ccccc4c3n2)cc1`
> 79.4 µM (not active)

// fetch EC50 given entry `FC(F)(F)c1nnc2c(Sc3ccc(Cl)cc3)nc3ccccc3n12`
24.3 µM (not active)

// fetch EC50 given entry `O=C(Nc1cnccn1)c1cccc(C(F)(F)F)c1`
> 79.4 µM (not active)

Now consider a different molecule.
// fetch EC50 given entry `CC(=O)CCc1ccc(OC(=O)c2cccnc2)cc1`
> 79.4 µM (not active)
